Assay: background-corrected fluorescence of 3'-dye-labeled ssDNA relative to brightest sequence (3'-GCGCG) (fraction); higher = brighter dye fluorescence (less quenching)
Settings: dye: Cy5 (3' terminal)
Entries and their background-corrected fluorescence
Quantity: background-corrected fluorescence

[[record]]
sequence_content = "TTTTTTGAGCATCATCATGCTTTTTTTTTTTTTTTCTGGA [AGGTC]"
observed_value = 0.605

[[record]]
sequence_content = "TTTTTGCATCAGCATCATCATTTTTTTTTTTTTTTTGTGG [GGTGT]"
observed_value = 0.511

[[record]]
sequence_content = "TTTTTTCATCATGATGCTGATTTTTTTTTTTTTTTGGCAC [CACGG]"
observed_value = 0.336

[[record]]
sequence_content = "TTTTTTGATGATCATGCGCATTTTTTTTTTTTTTTCCGAT [TAGCC]"
observed_value = 0.435

[[record]]
sequence_content = "TTTTTTCATGCTCATCATGATTTTTTTTTTTTTTTGAGGC [CGGAG]"
observed_value = 0.465


----------
Assay: background-corrected fluorescence of 3'-dye-labeled ssDNA relative to brightest sequence (3'-GCGCG) (fraction); higher = brighter dye fluorescence (less quenching)
Settings: dye: Cy5 (3' terminal)
Quantity: background-corrected fluorescence

[[record]]
sequence_content = "TTTTTTCATGCTGAGCATGATTTTTTTTTTTTTTTGACTC [CTCAG]"
observed_value = 0.317

[[record]]
sequence_content = "TTTTTTGATGCTCATGCGCATTTTTTTTTTTTTTTCAGAT [TAGAC]"
observed_value = 0.469

[[record]]
sequence_content = "TTTTTTGATGCGCATCATCATTTTTTTTTTTTTTTCATGG [GGTAC]"
observed_value = 0.521

[[record]]
sequence_content = "TTTTTGCAGCATCATCATGATTTTTTTTTTTTTTTTTGGC [CGGTT]"
observed_value = 0.457

[[record]]
sequence_content = "TTTTTTCATGAGCATGATCATTTTTTTTTTTTTTTGCTCG"
observed_value = 0.375

[[record]]
sequence_content = "TTTTTTGATGCGCAGCATCATTTTTTTTTTTTTTTCATTG [GTTAC]"
observed_value = 0.363

[[record]]
sequence_content = "TTTTTTGATCATGATGCTGATTTTTTTTTTTTTTTCGCAC [CACGC]"
observed_value = 0.342

[[record]]
sequence_content = "TTTTTTGCGCATCATGCTCATTTTTTTTTTTTTTTATGAG [GAGTA]"
observed_value = 0.466

[[record]]
sequence_content = "TTTTTTCATGCGCATGAGCATTTTTTTTTTTTTTTGATCT [TCTAG]"
observed_value = 0.354

[[record]]
sequence_content = "TTTTTGCATGATGATGCTCATTTTTTTTTTTTTTTTCCAG [GACCT]"
observed_value = 0.377

[[record]]
sequence_content = "TTTTTGCATGAGCATGATGCTTTTTTTTTTTTTTTTCTCA [ACTCT]"
observed_value = 0.348

[[record]]
sequence_content = "TTTTTTGCTGATGATGATCATTTTTTTTTTTTTTTACCCG [GCCCA]"
observed_value = 0.411

[[record]]
sequence_content = "TTTTTTGATGAGCATCATGCTTTTTTTTTTTTTTTCCTGA [AGTCC]"
observed_value = 0.499

[[record]]
sequence_content = "TTTTTTCAGCATGCTCATGCTTTTTTTTTTTTTTTGTAGA [AGATG]"
observed_value = 0.533

[[record]]
sequence_content = "TTTTTGCAGCATCATGCTGCTTTTTTTTTTTTTTTTTGAA [AAGTT]"
observed_value = 0.527

[[record]]
sequence_content = "TTTTTTGCTCATGCGCATCATTTTTTTTTTTTTTTAGATG [GTAGA]"
observed_value = 0.439

[[record]]
sequence_content = "TTTTTGCATCAGCAGCATGATTTTTTTTTTTTTTTTGTTC [CTTGT]"
observed_value = 0.31

[[record]]
sequence_content = "TTTTTTCAGCAGCATGCTCATTTTTTTTTTTTTTTGTTAG [GATTG]"
observed_value = 0.438

[[record]]
sequence_content = "TTTTTTGCTGCTCATGCGCATTTTTTTTTTTTTTTAAGAT [TAGAA]"
observed_value = 0.496

[[record]]
sequence_content = "TTTTTTCATGCTGCTGATCATTTTTTTTTTTTTTTGAACG [GCAAG]"
observed_value = 0.404

[[record]]
sequence_content = "TTTTTTGCTCATGCTCATCATTTTTTTTTTTTTTTAGAGG [GGAGA]"
observed_value = 0.525

